Test: protease stability score; higher = more stable; yeast display proteolysis, trypsin and chymotrypsin;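 note: log10 excess protease needed over predicted unfolded state with 0 meaning unfolded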
We begin with a simple list: items and their reported protease stability score.
measured_property: protease stability score

In [3]: df
Out[3]:
                             sequence_input  quantitative_result
0  DDERITELVTRFEKALQRGDNDEMERLMDPNARVRYGDKEYHGREDIKRALKEEKKRVDHFRLESVRWKNGHVEIFMKFTVNGRTEHRVFDIQLHNGRMKEMELTTS                 1.15
1  DEEALKLLESLMEAVKTNNEERLKSLVDPNAHFQYGDKTLHGMEDWAKEVVRRMREIHVEWEWHTWSVHNGQIVVDVHARLEINGRPVHWKERIIVELENGKVKSMVFQISEEEKKHIDG                  1.6
2  DEELVKRAEDMIKAIQRGDEDRINQMVDPNADVRVGDQRYDGMHEYVTRLKSRQKRMRRSVSVESVTAKNGQVRIDAKMTRNDNGRPERFKHIIIIKAENGEIQVIHVHKSQ               -0.078

###

Assay: protease stability score; higher = more stable; yeast display proteolysis, trypsin and chymotrypsin;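 note: log10 excess protease needed over predicted unfolded state with 0 meaning unfolded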
Classification field: enter YES for protease stability score values not below 0.7, NO for values below it.

>>> df
                              sequence_input  class_assignment
 0  DEEDQHVAKEFFSAMLTNDTDKLRRLADPNVRAHIGDKVIHGKEQFVRHVHELVEHQRVQVDRMDLDVDGERVRVEMRHVNEENGQPNDRKAKNSMDIHNGEIKYVTIKTQS                NO
 1  DEETLHDVLRHLKHGDPDTIDRMADENAKAVIGNQEIHGREEISKIAKDLERKVDHQEVHKVEIDGDKATVTYRQNVNGRTVYMYVIVQNHDGHIKYVVIKARDEDEMRKWEENLS               YES
 2  DDRELDHAKKVAERNDPDKLRKLADPNAHLTVGDKKIHGMHNAAQKVVSMWEQADHVDIKHVDQHNGRVRVEFRFVVNGREMEMVMRFEVKNGHIKRLQLEFTSEELQKKFDKLAD                NO
 3  DHEAEKRIKKWVDAIHTGDEEQLKRLADPNVKVNVGNYSVRGRENLADMVSRMRDEIRLTYRDVKMDVTGDHARMDADVERDHNGRPERFELKANFRWRNGKITEIDAHWHQ               YES
 4  DEEHQKHFEQFVKAMETGDEERLAQLVDKDVEISYGDKTIHGREELRKRVREIKEELRLTMDFKRITVRGDKVQANFKASMNHNGQPVSFKAHVTVTAHNGTIKSVSLSNHK               YES
 5  DDEDRKKADEMLKALKHGDPDRVRELMDPNAKAVYGDKRIRGRDDFVEDMFRKQREIKIDMKIEEFRVNGNHAVFTVDVIEDKDGRPKRFKARVVITLHNGKIIDIKVEEEH               YES
 6  DNKERAEDWFRHMTEIWKQNDPDELQNNADPNVRVDVGDKQVQGRDKYKTQMETFKNRADHISIELKNIDVQGERIVVNFEATYDVNGRKEDKTAHILARVHNGHIVIKEVKNG                NO
 7  DEDNVKRAEHFAEALITGNPEEIQKQVDPNAKIKVGEQEVHGMESYAKEVHEENKEMHIEIRHISATAQGDRARLEMRYVINSNGRPQHVVQEYTIKLHNGRAQEIEVKDDG                NO
 8  DEEREKEFATRIATALRTNDPKKMVKNFDENAKFDVGDNRIKGREELKEWVDELHKEFDHIEIHDVQAHNGRAKINLKLEHNGRDTVLDATVVVENGRAKSAKQDQS                NO
 9  DERTNTEMLKRLQHALQKNDPNEVRKLFDKDVQVQIGDKTLSGREQLLTEAEQRRKKIDDIEVTDMKSNPDHAVLSVVIKHNGRNRKVIYYIRWSNGKVRKVEERES               YES
10  DEEQAKTIMEKWQKAVQTNNDELADKLYKPNVEWENGDEQRQGKEVVVKMLQKAQKKGVEFQVRKAKVEGDRVEMVYDVRIGDQTVTFTVRMDVHGGRVERVKAEASDEVKKALKKG                NO
11  DHKEHAEKFAQQLDEAHKKNDPRQFLRLMDKDVRVSVGDKTVHGKENIRKQLEDLTKQADSIEFKVKSIRVTGDKVRLEFEVVYRHNGRHSRQTVVMYLKLHNGRAVIKSVQVK                NO
12  DEDAQTQVEKMLKNMQRGDNQEVNKMFDKNVEFRVGDRDIHGREEYARQVSREHKESRVEFRHIHARVKGDHVRIRVDVVRQVNGKPQRMTVEFEVQAHNGKIKRFQVEFDPDEERRVQK                NO
13  DEQTKAERFVQRVEEILKHGDEKKYAHLADKNVKVKYGDKEWHGREHWEKEVKKTRDKVDDIRIDYKELQVHNGKVDVRFQVRNNHNGKNESRDASYTLDDHNGRIRIQSMHVK                NO
14  DETHKAKEMLKEFHTAVSKGDEDRYSNLLDENVHITYGDKTVHGREEAVKLFTELQERADHVDVDVVSVDVKGETVKARIRINFVYDGREDRHEFTLIAIVDNGRFVIKSIIQK               YES
15  DEEDYKKMNEQLERIYKHGDPEEAEKMFDPNAKAEVGDKTIHGREEFRKYQQDRKDQADHVQVKDFKVQGERFVMEVVAHVNGREVRQVVNFTVHNGKIQDLKVREK                NO
16  EEEVAKHALEIMITGDPKQIKEMVDENAHVKVGNKEWHGREHMVHWAEQLHTQVDHREVRSMEVNGNTARVDLVVTINGHHIRFILRATIHNGRVQHLSLEVTNEEQQTQWERNLS                NO
17  DREDLAREMVERLEDIMKHNNEKELVNQMDENVRMTIGDKEYEGREAATKEAHDLFRRADHLRLSVETFNVQGDKAVITFQVVFNHNGRKSHDRVILDFRISGDKVKLVSQTKG                NO
18  DDEEQRKLAKEFIDLLRTGDEEHIAHQADKDVTFQIGDKRYTGQEELLKYMKHLVDRVDHIEVEEVDVRGNKVNVTVVVRYNGKRVTLNFDLEFSNGRLIHMSVDPDQQRQLDG               YES
19  DDEKLANEFQTKFRSVMETNDEENMRKLADKDARLNVGDDDVHGREQVARYLAEVLRRVDTFRVRYEDVDIRNGQVRVTMEIHNNHNGSDRTDRVHLQMEVTGDTASLKRITEG                NO
20  DDDTTAKKAIDDFIENFEHGDPKEADKQADENVRVEYGDKEVDGRHQMAHWLVKLVERVDHVRWHIHEVRMDNGKINVIFENKQKFDGRTEDREFHMTADTRDGRIQLTSVHEK                NO

###

Test: protease stability score; higher = more stable; yeast display proteolysis, trypsin and chymotrypsin;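 note: log10 excess protease needed over predicted unfolded state with 0 meaning unfolded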
We begin with a simple list: items and their reported protease stability score.
measured_property: protease stability score

In [3]: df
Out[3]:
                             sequence_input  quantitative_result
0  DRRQEARDIQHDQNRALKHGDQESAQRLFDENARIKIGDRQWHGSDDVMTEVREQHKKVDSIRIHVVSIDVRGDQYDINVQYNLHYDGDNDTFRATQRLKKHNGSVRVVDQHEQ               -0.276
1  DDEEADKIVEELVKAMEHNDEKHFMELVDPNAKVRYGDTEYHGEDQIQTMFREIVEQADTVQVRSYRVENGEARVEANFRVNGRNAIVTMSATFHNGRVQSLRLHARDEEDRNKLDN                0.999
2  DEEAKDNFETAFKAEMTGDPQKYKKNVDPNAKVTIGDKTVRGREEVAKQLQHRRKESHVEFTDMKVKVQGDKVVVKLKAVDNENGRPDTAHYDIQFHASDGRITDLKVNKTK               -0.049
3  DEQDQARKNVKTLANAIEDNDENQVHRLMDPNARLRIGDKDYHGREEAAHAMREIRETFDHIRIQVTRVRVEGDKINLIAKVNRNHNGRNEESEVDIQFVQDNGRARIVRLVDR                0.554
4  DEEEQHKTATKILSDFHTGNPDDMRENADEDVTAQVGDKTYTGREEFHKAVKTIVDRVDHLEIKSFDFHNGQLEANFVININGKNEKKKLVMRVENGRVKHMKIDDG               -0.221
5  DDKHKVEQLLRRADDALRTNDERKYIEMVDKDVRITVGDKQIHGKDEAVKFLRTLHNTYDHVQIRVESIENDGEKFKVIVQITAKHNGKETSHTLSFDAQRHNGQVRVKHASMG                 1.21
